- Target Entity: Nuclear receptor coactivator 2 (Homo sapiens)
- Assay Overview: SRC2 coactivator transcriptional activity inhibitors, confirmation, cell-based, luminescence, HEK293, triplicate (AID 652008);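 also: 0% = DMSO-treated cells and 100% = Gossypol at 36 µM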
- Applied Conditions: HEK293 GAL4-SRC2 luciferase reporter, at 8.9 µM
Calls of active or inactive are those of the source.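 The calls were made as follows: active = mean inhibition above 46.5%, the solvent-only control mean plus 3 SD; inactive = the rest.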
Outcome (select one): label 1 for active, label 0 for inactive

Give the logged outcome of this assay for the following molecule: C=C1C(=O)C23CCC4C(C)(C(=O)OC)CCCC4(C)C2CCC1(O)C3 (centres undefined)
label 1

Give the logged outcome of this assay for the following molecule: COc1cccc2c1C(=O)c1c(O)c3c(c(O)c1C2=O)C[C@](O)(C(C)=O)C[C@H]3O[C@@H]1C[C@@H](N)[C@@H](O)[C@@H](C)O1
label 0

Give the logged outcome of this assay for the following molecule: CN(c1ccc(F)cc1)S(=O)(=O)c1ccc(Cl)c(C(=O)Nc2ccncc2)c1
label 0

Give the logged outcome of this assay for the following molecule: COc1cc(NC(=O)C2CC(c3c(F)cccc3Cl)=NO2)cc(OC)c1OC (centres undefined)
label 0

Give the logged outcome of this assay for the following molecule: Cc1ccc(NCc2nnc(SCC(=O)c3ccccc3)n2Cc2ccco2)c(C)c1
label 0

Give the logged outcome of this assay for the following molecule: CCOC(=O)Cc1ccc(NC(=O)c2ccc(C(C)(C)C)cc2)cc1
label 1

Give the logged outcome of this assay for the following molecule: C=CCN(CC#CCN(C)C(=O)c1cccn1C(=O)OC(C)(C)C)Cc1ccc(OC)cc1OC
label 0

Give the logged outcome of this assay for the following molecule: Cc1ccccc1Cn1c(C)nc2ccccc21
label 0

Give the logged outcome of this assay for the following molecule: COc1ccc2c(c1)/C(=C\c1cccc(/C=C3/C(=O)Nc4ccc(OC)cc43)n1)C(=O)N2
label 1

Give the logged outcome of this assay for the following molecule: CCOc1ccc(-c2cc(CCCC(=O)NCCc3ccccc3)no2)cc1
label 0

Give the logged outcome of this assay for the following molecule: O=C(Nc1ccc2oc(=O)c(C(=O)O)cc2c1)Oc1ccccc1
label 0

Give the logged outcome of this assay for the following molecule: CC(C)(C)c1ccc(Oc2ccc(N)cc2)cc1
label 1

Give the logged outcome of this assay for the following molecule: Nc1ccc(-c2nc3c(Cl)cc(N)cc3[nH]2)cc1
label 1

Give the logged outcome of this assay for the following molecule: N#CC1C=Cc2c(ccc3ccccc23)N1C(=O)c1ccccc1 (centres undefined)
label 1

----------
- Target Entity: Nuclear receptor coactivator 2 (Homo sapiens) (UniProt Q15596)
- Sequence (Q15596 whole entry, looked up): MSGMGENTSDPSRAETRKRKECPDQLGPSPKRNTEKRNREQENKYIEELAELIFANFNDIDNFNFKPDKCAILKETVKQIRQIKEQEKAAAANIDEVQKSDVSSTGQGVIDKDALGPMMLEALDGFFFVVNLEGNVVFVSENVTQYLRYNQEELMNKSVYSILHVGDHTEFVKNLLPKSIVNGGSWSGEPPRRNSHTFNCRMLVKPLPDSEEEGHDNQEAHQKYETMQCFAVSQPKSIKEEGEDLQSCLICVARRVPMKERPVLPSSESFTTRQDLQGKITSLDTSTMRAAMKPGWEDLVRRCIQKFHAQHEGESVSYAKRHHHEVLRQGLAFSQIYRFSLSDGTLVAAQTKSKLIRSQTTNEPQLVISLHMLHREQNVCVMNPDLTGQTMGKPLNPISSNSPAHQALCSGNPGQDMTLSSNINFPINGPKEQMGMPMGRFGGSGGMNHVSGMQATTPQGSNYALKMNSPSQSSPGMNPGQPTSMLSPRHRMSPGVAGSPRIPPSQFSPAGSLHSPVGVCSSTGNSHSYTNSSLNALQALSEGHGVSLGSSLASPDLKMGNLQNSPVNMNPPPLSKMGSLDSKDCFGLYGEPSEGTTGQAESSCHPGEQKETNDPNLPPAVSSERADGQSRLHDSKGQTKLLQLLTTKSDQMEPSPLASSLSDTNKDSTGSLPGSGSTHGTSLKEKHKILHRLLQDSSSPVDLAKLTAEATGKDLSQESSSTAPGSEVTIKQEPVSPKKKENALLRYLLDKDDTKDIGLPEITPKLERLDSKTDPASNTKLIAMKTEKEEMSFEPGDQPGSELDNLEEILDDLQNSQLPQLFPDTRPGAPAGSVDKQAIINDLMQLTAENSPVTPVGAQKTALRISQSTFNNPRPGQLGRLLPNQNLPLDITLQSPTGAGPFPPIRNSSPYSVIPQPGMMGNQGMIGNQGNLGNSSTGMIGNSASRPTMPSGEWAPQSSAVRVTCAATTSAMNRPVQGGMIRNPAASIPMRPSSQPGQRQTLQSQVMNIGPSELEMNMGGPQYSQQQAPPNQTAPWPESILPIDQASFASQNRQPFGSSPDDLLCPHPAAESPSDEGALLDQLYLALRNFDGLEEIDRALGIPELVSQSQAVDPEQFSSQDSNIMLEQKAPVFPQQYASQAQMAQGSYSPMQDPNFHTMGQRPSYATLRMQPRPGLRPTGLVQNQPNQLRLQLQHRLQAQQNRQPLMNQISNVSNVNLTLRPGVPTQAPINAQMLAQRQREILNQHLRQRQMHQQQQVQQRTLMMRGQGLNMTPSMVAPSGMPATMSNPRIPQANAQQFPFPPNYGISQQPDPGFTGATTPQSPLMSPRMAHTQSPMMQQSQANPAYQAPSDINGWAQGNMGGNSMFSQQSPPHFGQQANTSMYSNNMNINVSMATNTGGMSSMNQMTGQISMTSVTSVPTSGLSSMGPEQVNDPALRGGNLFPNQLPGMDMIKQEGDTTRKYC
- Assay Overview: SRC2 coactivator transcriptional activity inhibitors, confirmation, cell-based, luminescence, HEK293, triplicate (AID 652008);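 also: 0% = DMSO-treated cells and 100% = Gossypol at 36 µM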
- Applied Conditions: HEK293 GAL4-SRC2 luciferase reporter, at 8.9 µM
The source made the active and inactive calls.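 How the source made its calls: active means mean inhibition above 46.5%, the solvent-only control mean plus 3 SD; inactive means the rest.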
Outcome (select one): active, inactive

Give the logged outcome of this assay for the following molecule: COc1ccc(-n2c(SCC(=O)NN=Cc3c(O)ccc4ccccc34)nnc2-c2ccc(C(C)(C)C)cc2)cc1
inactive

Give the logged outcome of this assay for the following molecule: CCN(CC)S(=O)(=O)c1ccc(N/N=C/c2cc(OC)ccc2O)nc1
inactive

Give the logged outcome of this assay for the following molecule: Cc1ccccc1C(=O)N1CCN(c2ccc(NC(=O)c3ccccc3[N+](=O)[O-])cc2)CC1
inactive

Give the logged outcome of this assay for the following molecule: CC(=O)O[C@@H]1C[C@H]2C(C)(C)C(=O)C=C[C@]2(C)[C@H]2CC[C@@]3(C)[C@H](c4ccoc4)OC(=O)[C@H]4O[C@]43[C@@]21C
inactive

Give the logged outcome of this assay for the following molecule: CCOc1ccccc1-n1c(SCC(=O)Nc2ccccc2C(=O)O)nc2ccccc2c1=O
active

Give the logged outcome of this assay for the following molecule: CC1(Cc2ccc(F)cc2)C(=O)Nc2ccc(-c3cccnc3)cc21 (stereo unspecified)
inactive
